Hey, just so you know, these numbers are from ChEMBL document CHEMBL1201862.

Molecular target: UniProt P11712
Sequence (P11712 whole entry): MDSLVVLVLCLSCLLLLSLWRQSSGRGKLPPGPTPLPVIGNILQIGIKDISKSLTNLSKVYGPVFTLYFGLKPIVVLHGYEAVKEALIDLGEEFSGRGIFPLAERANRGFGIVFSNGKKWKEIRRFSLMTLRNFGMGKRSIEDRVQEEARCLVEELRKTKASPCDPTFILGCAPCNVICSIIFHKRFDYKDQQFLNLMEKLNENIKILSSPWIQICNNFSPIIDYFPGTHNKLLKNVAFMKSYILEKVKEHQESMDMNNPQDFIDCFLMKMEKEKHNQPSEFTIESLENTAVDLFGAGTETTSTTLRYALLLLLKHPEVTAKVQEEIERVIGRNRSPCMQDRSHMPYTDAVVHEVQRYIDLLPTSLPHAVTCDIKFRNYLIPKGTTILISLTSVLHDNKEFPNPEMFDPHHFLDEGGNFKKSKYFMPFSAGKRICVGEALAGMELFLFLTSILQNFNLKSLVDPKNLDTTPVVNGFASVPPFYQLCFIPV

- smiles.input: "COC(=O)Cc1c(C)nc2nc(NCc3ccccc3OC)nn2c1O"
  AC50: "22.4 µM (inconclusive)"
- smiles.input: "COCCn1c(=O)cnc2cnc(Nc3cccc(OC)c3)nc21"
  AC50: "25.1 µM (inconclusive)"
- smiles.input: "CCn1c(SCc2ccc(Cl)cc2Cl)nc2nc3c(cc2c1=O)CCCC3"
  AC50: "5.01 µM (inconclusive)"
- smiles.input: "Cc1oc(-c2ccccc2Cl)nc1CSCC(=O)NC1CC1"
  AC50: "20 µM (inconclusive)"
- smiles.input: "Cn1cnnc1SCC(=O)n1c2ccccc2c2ccccc21"
  AC50: "0.00562 µM (inconclusive)"
- smiles.input: "CCOP(=O)(CN(CC)CCNP(=O)(OCC)OCC)OCC"
  AC50: "0.126 µM (inconclusive)"
- smiles.input: "O=C(CCCN1CCN(c2ccccn2)CC1)c1ccc(F)cc1"
  AC50: "12.6 µM (inconclusive)"
- smiles.input: "COc1ccc(CN2CN(c3ccc(Cl)cc3)C(=O)N(n3cnnc3)C2)cc1"
  AC50: "39.8 µM (inconclusive)"
- smiles.input: "COC(=O)c1ccccc1OCC(=O)N1CCN(c2ccc(Cl)cc2)CC1"
  AC50: "14.1 µM (inconclusive)"
- smiles.input: "CNC(=S)N1CCN(c2ccccc2OC)CC1"
  AC50: "14.1 µM (inconclusive)"
- smiles.input: "CCOC(=O)[C@H](N)/C=C(\\C)CP(=O)(O)O"
  AC50: "25.1 µM (inconclusive)"

---

Items are presented alongside their recorded AC50.
Molecular target: Paired box protein Pax-8 (Homo sapiens, UniProt Q06710)
Sequence (Q06710 whole entry): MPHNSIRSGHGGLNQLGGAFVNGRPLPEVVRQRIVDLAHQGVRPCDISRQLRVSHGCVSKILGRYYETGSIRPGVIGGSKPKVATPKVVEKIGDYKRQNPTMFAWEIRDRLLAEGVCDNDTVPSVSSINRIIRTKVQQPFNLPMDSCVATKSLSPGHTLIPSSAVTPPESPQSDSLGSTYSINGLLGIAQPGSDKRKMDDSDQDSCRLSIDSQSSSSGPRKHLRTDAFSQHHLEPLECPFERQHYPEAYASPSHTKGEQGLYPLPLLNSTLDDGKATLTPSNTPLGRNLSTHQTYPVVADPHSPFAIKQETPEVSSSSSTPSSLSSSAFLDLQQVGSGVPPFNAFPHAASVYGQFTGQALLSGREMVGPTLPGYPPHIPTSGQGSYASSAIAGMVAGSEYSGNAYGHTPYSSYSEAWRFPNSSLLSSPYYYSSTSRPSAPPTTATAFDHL
Assay: PAX8 transcriptional activity inhibition in RMG-I – RMG-I cells, luciferase, cherry-pick, dose response (AID 687027);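 further: luciferase reporter driven by Pax8 target thyroperoxidase promoter measured by SteadyGlo luminescence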
Format: functional, cell-based
Active and inactive are the calls of the source. The rule behind the calls is not given here.

- compound: "COc1ccc(S(=O)(=O)Nc2ccc3c(c2)C(=O)N([C@@H](C)CO)C[C@H](C)[C@H](CN(C)Cc2ccc(C(F)(F)F)cc2)OCCCC[C@@H](C)O3)cc1"
  AC50: "7.68 µM (active)"
- compound: "CCCCC(=O)NC(c1ccccc1)c1ccc2cccnc2c1O (configuration not stated)"
  AC50: "3.24 µM (active)"
- compound: "COc1ccc(F)cc1-c1cc(NC=O)c2ncc(-c3cc(OC)c(OC)c(OC)c3)n2c1"
  AC50: "3.49 µM (active)"
- compound: "Cc1ccc(S(=O)(=O)Nc2ccc3c(c2)C(=O)N([C@H](C)CO)C[C@H](C)[C@H](CN(C)C(=O)c2ccccc2)OCCCC[C@H](C)O3)cc1"
  AC50: "19.4 µM (active)"
- compound: "CC(=O)OC1CCC2(C)C(CCC3C4CC=C(C(C)=O)C4(C)OC(=O)CC32)C1 (configuration not stated)"
  AC50: "6.49 µM (active)"
- compound: "COc1cccc(C#Cc2ccc([C@H]3[C@@H](C#N)N(C(=O)c4ccccn4)[C@@H]3CO)cc2)c1"
  AC50: "15 µM (active)"
- compound: "C[C@H](CO)N1C[C@H](C)[C@H](CN(C)Cc2ccc(C(F)(F)F)cc2)OCCCC[C@H](C)Oc2ccc(NC(=O)Nc3ccccc3)cc2C1=O"
  AC50: "8.44 µM (active)"
